- systemUnderTest: Lymphocyte-specific protein tyrosine kinase (Lck), enzyme in cell-free kinase assay (human, UniProt P06239 1-509, limits assumed)
- Sequence (P06239 whole entry): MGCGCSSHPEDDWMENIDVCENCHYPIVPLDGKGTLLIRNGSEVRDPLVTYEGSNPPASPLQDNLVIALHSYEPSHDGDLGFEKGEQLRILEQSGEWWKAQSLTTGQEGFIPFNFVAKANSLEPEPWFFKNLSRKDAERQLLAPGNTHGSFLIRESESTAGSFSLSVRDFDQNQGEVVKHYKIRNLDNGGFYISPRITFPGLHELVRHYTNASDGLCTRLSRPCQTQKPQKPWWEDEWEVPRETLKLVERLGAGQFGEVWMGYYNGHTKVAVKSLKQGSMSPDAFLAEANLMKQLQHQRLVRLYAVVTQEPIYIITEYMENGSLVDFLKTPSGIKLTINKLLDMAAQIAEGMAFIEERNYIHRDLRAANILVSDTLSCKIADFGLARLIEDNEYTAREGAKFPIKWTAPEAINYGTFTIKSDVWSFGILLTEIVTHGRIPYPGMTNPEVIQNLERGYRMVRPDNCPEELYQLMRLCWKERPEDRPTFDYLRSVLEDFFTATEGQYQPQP
- assayNotes: cell-based or functional assay
parameter: Lck Activation above control, 30 µM (%)
Field: numeric (%). Do not append units.

Reference set, count: 3
Q: Please give the measured Lck Activation above control, 30 µM for this binder: `RSRARNPLY`
Ans: 0

Q: And then `ASKAKNPLY` , what is it?
Ans: 0

Q: `SKAKNPLYR` , same question.
Ans: 0

Please look at the following binder next.
Q: So what does the record say about Lck Activation above control, 30 µM for `RYLPNKAKS` ?
Ans: 5
